Tested on: PPARg:RXRa (NR concentration 180 nM, RXRa partner concentration 90 nM)
Experiment: PBM binding z-score (relative to random genomic background probes); higher = stronger binding; sequences stand for … in GC…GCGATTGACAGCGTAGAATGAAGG
Mark 1.0 for reported PBM binding z-score of 2 or greater; mark 0.0 for anything smaller.

Answered cases to consult:
>  <residue.codes>
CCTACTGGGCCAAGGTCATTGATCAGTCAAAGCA

>  <target.of.assay>
PPARg:RXRa (NR concentration 180 nM, RXRa partner concentration 90 nM)

>  <discrete.label>
1.0

$$$$
>  <residue.codes>
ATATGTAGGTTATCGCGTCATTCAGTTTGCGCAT

>  <target.of.assay>
PPARg:RXRa (NR concentration 180 nM, RXRa partner concentration 90 nM)

>  <discrete.label>
1.0

$$$$
>  <residue.codes>
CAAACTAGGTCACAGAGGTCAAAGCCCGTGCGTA

>  <target.of.assay>
PPARg:RXRa (NR concentration 180 nM, RXRa partner concentration 90 nM)

>  <discrete.label>
1.0

$$$$

Q) Is PBM binding z-score for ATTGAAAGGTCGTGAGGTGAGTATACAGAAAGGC at or above 2?
A) 1.0

Q) Item: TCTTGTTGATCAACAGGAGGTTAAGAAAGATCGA
A) 0.0
